Listing of entries alongside the reported ECHCG phytotoxicity rating (0-100).
Test system: barnyardgrass (Echinochloa crusgalli, ECHCG)
assay_details: Post-emerge greenhouse herbicide test, phytotoxicity rating
Type: in vivo
test_context: 500 g al/ha, 14 days after application

cpd_smiles: Cc1nn(-c2cc(Oc3ncccn3)c(Cl)cc2F)c(=O)n1C(F)F
ECHCG phytotoxicity rating (0-100): 100
//
cpd_smiles: O=c1cc2n(c(=O)n1-c1cc(Oc3ncccn3)c(Cl)cc1F)CCC2
ECHCG phytotoxicity rating (0-100): 40
//
cpd_smiles: O=c1n(-c2cc(Oc3ccccc3)c(Cl)cc2F)c(=S)n2n1CCCC2
ECHCG phytotoxicity rating (0-100): 55
//
cpd_smiles: O=c1n(CCCF)nnn1-c1cc(Oc2ncccn2)c(Cl)cc1F
ECHCG phytotoxicity rating (0-100): 100
//
cpd_smiles: CN1CC(=O)N(c2cc(Oc3ncccn3)c(Cl)cc2F)C1=O
ECHCG phytotoxicity rating (0-100): 0
//
cpd_smiles: N#Cc1cc([N+](=O)[O-])ccc1Oc1cc(-n2c(=O)n3n(c2=S)CCCC3)c(F)cc1Cl
ECHCG phytotoxicity rating (0-100): 40
//
cpd_smiles: Cn1c(C(F)(F)F)nc(-c2cc(Oc3ncccc3[N+](=O)[O-])c(Cl)cc2F)c1Cl
ECHCG phytotoxicity rating (0-100): 30
//
cpd_smiles: O=c1n(CCCF)nnn1-c1cc(Oc2ncccc2C(F)(F)F)c(Cl)cc1Cl
ECHCG phytotoxicity rating (0-100): 50

----------
Test system: Johnsongrass (Sorghum halepense, SORHA)
assay_details: Post-emerge greenhouse herbicide test, phytotoxicity rating
Assay type: in vivo
test_context: 63 g al/ha, 14 days after application
Listing of entries alongside the reported SORHA phytotoxicity rating (0-100).

cpd_smiles: N#Cc1cccnc1Oc1cc(-n2nnn(CCCF)c2=O)c(Cl)cc1Cl
target_desc: Johnsongrass (Sorghum halepense, SORHA)
SORHA phytotoxicity rating (0-100): 0

cpd_smiles: N#Cc1cccnc1Oc1cc(-n2nnn(CCCF)c2=O)c(F)cc1Cl
target_desc: Johnsongrass (Sorghum halepense, SORHA)
SORHA phytotoxicity rating (0-100): 0

cpd_smiles: O=c1n(CCCF)nnn1-c1cc(Oc2ncccc2C(F)(F)F)c(Cl)cc1F
target_desc: Johnsongrass (Sorghum halepense, SORHA)
SORHA phytotoxicity rating (0-100): 0

cpd_smiles: Cn1nc(-c2cc(Oc3ncccn3)c(Cl)cc2F)c(Cl)c1C(F)(F)F
target_desc: Johnsongrass (Sorghum halepense, SORHA)
SORHA phytotoxicity rating (0-100): 90

cpd_smiles: O=c1n(CCCF)nnn1-c1cc(Oc2ncccc2[N+](=O)[O-])c(Cl)cc1Cl
target_desc: Johnsongrass (Sorghum halepense, SORHA)
SORHA phytotoxicity rating (0-100): 0

cpd_smiles: Nc1ccc(Oc2cc(-n3c(=O)n4n(c3=S)CCCC4)c(F)cc2Cl)cc1
target_desc: Johnsongrass (Sorghum halepense, SORHA)
SORHA phytotoxicity rating (0-100): 0

cpd_smiles: CCN1CC(=O)N(c2cc(Oc3ncccn3)c(Cl)cc2F)C1=O
target_desc: Johnsongrass (Sorghum halepense, SORHA)
SORHA phytotoxicity rating (0-100): 0

cpd_smiles: O=c1n(-c2cc(Oc3ccc([N+](=O)[O-])cc3C(F)(F)F)c(Cl)cc2F)c(=S)n2n1CCCC2
target_desc: Johnsongrass (Sorghum halepense, SORHA)
SORHA phytotoxicity rating (0-100): 0

cpd_smiles: N#Cc1cc([N+](=O)[O-])ccc1Oc1cc(-n2c(=O)n3n(c2=S)CCCC3)c(F)cc1Cl
target_desc: Johnsongrass (Sorghum halepense, SORHA)
SORHA phytotoxicity rating (0-100): 0

cpd_smiles: O=c1sc(=Nc2cc(Oc3ncccn3)c(Cl)cc2F)n2n1CCCC2
target_desc: Johnsongrass (Sorghum halepense, SORHA)
SORHA phytotoxicity rating (0-100): 60

cpd_smiles: O=c1n(CCCF)nnn1-c1cc(Oc2ccc(C(F)(F)F)cn2)c(Cl)cc1Cl
target_desc: Johnsongrass (Sorghum halepense, SORHA)
SORHA phytotoxicity rating (0-100): 0

cpd_smiles: O=c1n(-c2cc(Oc3ccccc3)c(Cl)cc2F)c(=S)n2n1CCCC2
target_desc: Johnsongrass (Sorghum halepense, SORHA)
SORHA phytotoxicity rating (0-100): 10

cpd_smiles: O=c1n(-c2cc(Oc3ccc([N+](=O)[O-])cc3)c(Cl)cc2F)c(=S)n2n1CCCC2
target_desc: Johnsongrass (Sorghum halepense, SORHA)
SORHA phytotoxicity rating (0-100): 10
